assay: AUC (0 to 7 hrs) in Han Wistar rat blood at 2 mg/kg, po by LC-MS/MS analysis; type: ADME, organism-based; set-up: dose 2 mg/kg, time < 7 hr, route oral; conditions: Han Wistar, blood
Lab note: compare AUC(0-t) at 7 h against 0.4 µM·h. Equal or greater, write Condition met. Smaller, write Condition not met.

COc1cc2ncnc(Nc3cccc(Cl)c3F)c2cc1OC(=O)N1CCN(C)[C@@H](C)C1 : Condition not met
COc1cc2ncnc(Nc3cccc(Cl)c3F)c2cc1OC(=O)N1CC[C@H](N(C)C)C1 : Condition met
COc1cc2ncnc(Nc3ccc(F)c(Cl)c3)c2cc1N1CCOCC1 : Condition not met

Query: Hi, just wondering whether COc1cc2ncnc(Nc3cccc(Cl)c3F)c2cc1OC(=O)N1CC[C@@H](N(C)C)C1 shows AUC(0-t) at 7 h of 0.4 µM·h or higher.
Response: Condition met

----------
target: Vascular endothelial growth factor receptor 2 (Homo sapiens); experiment: Inhibition of recombinant KDR (unknown origin) after 40 mins by scintillation counting analysis in presence of [gamma33P]-ATP
Sequence (P35968 whole entry): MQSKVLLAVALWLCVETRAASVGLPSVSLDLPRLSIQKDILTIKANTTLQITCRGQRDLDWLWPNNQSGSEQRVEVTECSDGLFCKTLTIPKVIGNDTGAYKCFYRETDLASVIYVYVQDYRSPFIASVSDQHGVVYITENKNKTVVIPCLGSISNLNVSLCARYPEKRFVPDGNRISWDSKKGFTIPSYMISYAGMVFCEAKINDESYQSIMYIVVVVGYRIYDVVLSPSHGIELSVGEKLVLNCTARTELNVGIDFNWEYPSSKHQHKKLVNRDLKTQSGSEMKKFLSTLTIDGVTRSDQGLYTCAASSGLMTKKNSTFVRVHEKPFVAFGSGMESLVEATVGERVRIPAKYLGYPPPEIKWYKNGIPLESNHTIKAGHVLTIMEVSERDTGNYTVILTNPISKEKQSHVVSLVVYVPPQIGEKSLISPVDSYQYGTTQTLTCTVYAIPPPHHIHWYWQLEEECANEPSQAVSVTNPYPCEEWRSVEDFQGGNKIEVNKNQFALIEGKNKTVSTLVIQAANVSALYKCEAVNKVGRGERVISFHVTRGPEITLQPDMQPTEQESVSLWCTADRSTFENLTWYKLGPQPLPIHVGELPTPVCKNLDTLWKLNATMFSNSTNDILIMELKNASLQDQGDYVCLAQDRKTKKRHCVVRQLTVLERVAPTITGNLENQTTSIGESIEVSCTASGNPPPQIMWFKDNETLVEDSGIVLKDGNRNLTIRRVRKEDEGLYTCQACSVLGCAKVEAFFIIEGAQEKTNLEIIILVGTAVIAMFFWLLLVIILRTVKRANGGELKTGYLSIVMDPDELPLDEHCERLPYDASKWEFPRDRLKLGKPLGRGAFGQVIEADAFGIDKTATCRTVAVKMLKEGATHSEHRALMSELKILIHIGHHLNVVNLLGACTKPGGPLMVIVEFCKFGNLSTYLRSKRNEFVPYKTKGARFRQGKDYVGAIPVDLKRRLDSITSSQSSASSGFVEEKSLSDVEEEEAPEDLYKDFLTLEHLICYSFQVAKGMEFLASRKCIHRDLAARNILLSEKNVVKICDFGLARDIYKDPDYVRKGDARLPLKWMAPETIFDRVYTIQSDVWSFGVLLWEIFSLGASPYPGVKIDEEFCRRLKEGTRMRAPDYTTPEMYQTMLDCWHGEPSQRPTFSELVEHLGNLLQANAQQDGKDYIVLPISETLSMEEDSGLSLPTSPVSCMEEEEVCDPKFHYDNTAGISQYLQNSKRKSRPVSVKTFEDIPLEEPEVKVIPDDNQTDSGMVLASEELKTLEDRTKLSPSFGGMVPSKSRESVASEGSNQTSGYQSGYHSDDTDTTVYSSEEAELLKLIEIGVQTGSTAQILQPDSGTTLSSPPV
PROPERTY: pIC50
Just the number, please; pIC50 means minus log10 of the concentration in mol/L.

Query: For the compound COc1cc2ncnc(Nc3cccc(Cl)c3F)c2cc1OC(=O)N1CCN(C)C[C@H]1C , give its measured pIC50 value.
Response: 6.81

----------
experiment: AUC (0 to 7 hrs) in Han Wistar rat brain at 20 mg/kg, po measured after 0.5 to 24 hrs by LC-MS/MS analysis; format: ADME, organism-based; design: time < 7 hr, dose 20 mg/kg, route oral
PROPERTY: AUC(0-t) at 7 h (µM·h)
Number only, in µM·h; omit the unit.

Query: Report AUC(0-t) at 7 h for COc1cc2ncnc(Nc3ccc(F)c(Cl)c3)c2cc1OCCCN1CCOCC1 [GEFITINIB]
Response: 5.65

----------
Entries and their measured efflux ratio follow.
test system: BCRP; experiment: in vitro; conditions: dog
Description: Efflux ratio of permeability from basolateral to apical side over apical to basolateral side in BCRP transfected MDCK2 cells
Form field (numeric): enter value without unit.

CN(C)C/C=C/C(=O)Nc1cc2c(Nc3ccc(F)c(Cl)c3)ncnc2cc1O[C@H]1CCOC1 [AFATINIB] : 59

Here's the next entry for you.
Query: Please give measured efflux ratio of the following entry: C#Cc1cccc(Nc2ncnc3cc(OCCOC)c(OCCOC)cc23)c1 [ERLOTINIB]
Response: 5.4

----------
assay: Ratio of unbound AUC (0 to 7 hrs) in CSF to blood of Han Wistar rat at 2 mg/kg, po by LC-MS/MS analysis; type: ADME, organism-based; settings: Han Wistar, CSF and blood
PROPERTY: Kp uu
Write the value as a bare number.

Solved entries:
COc1cc2ncnc(Nc3cccc(Cl)c3F)c2cc1OC(=O)N1CCOCC1 : 3.4
COc1cc2ncnc(Nc3cccc(Cl)c3F)c2cc1OC(=O)N1CCN(C)[C@@H](C)C1 : 3.5
COc1cc2ncnc(Nc3cccc(Cl)c3F)c2cc1OC(=O)N1CCN(C)C[C@@H]1C : 2.6
COc1cc2ncnc(Nc3cccc(Cl)c3F)c2cc1OC(=O)N1CC[C@@H](N(C)C)C1 : 0.43
COc1cc2ncnc(Nc3cccc(Cl)c3F)c2cc1OC(=O)N1CCN(C)[C@H](C)C1 : 0.28
COc1cc2ncnc(Nc3cccc(Cl)c3F)c2cc1OC(=O)N1CCN(C)C2CC21 (stereo in doubt; 1i) : 0.9
COc1cc2ncnc(Nc3cccc(Cl)c3F)c2cc1N1CCOCC1 : 0.93
COc1cc2ncnc(Nc3cccc(Cl)c3F)c2cc1OC(=O)N1CCN(C)CC1 : 0.52
COc1cc2ncnc(Nc3cccc(Cl)c3F)c2cc1OC(=O)N1CCN(C)C[C@H]1C [AZD-3759] : 1.3

Attention now shifts to the item below.
Query: Consider the compound COc1cc2ncnc(Nc3cccc(Cl)c3F)c2cc1C(=O)N1CCOCC1 and give its recorded Kp uu.
Response: 0.16
